Where do these numbers come from? They come from ChEMBL document CHEMBL1773061.

assayed-target: Mitogen-activated protein kinase 14 (Homo sapiens)
measurement-description: Inhibition of p38 alpha MAPK in human whole blood assessed as suppression of LPS-induced TNF-alpha release by immunosorbent non-radioactive enzyme assay
Type: tissue-based
value-type: IC50 (nM)

// worked examples, IC50 included
CC(C)[C@H](C)Nc1cc(-c2[nH]c([S@+](C)[O-])nc2-c2ccc(F)cc2)ccn1 : 250
CC(C)Nc1cc(-c2nc([S@@+](C)[O-])[nH]c2-c2ccc(F)cc2)ccn1 : 530
CC(C)[C@@H](C)Nc1cc(-c2[nH]c([S@@+](C)[O-])nc2-c2ccc(F)cc2)ccn1 : 900
C[C@H](Nc1cc(-c2[nH]c([S@@+](C)[O-])nc2-c2ccc(F)cc2)ccn1)c1ccccc1 : 10000

1 = C[S@@+]([O-])c1nc(-c2ccc(F)cc2)c(-c2ccnc(NC3CCCCC3)c2)[nH]1
2 = CC(C)[S@+]([O-])c1nc(-c2ccnc(NC3CCCCC3)c2)c(-c2ccc(F)cc2)[nH]1
**Q:** Select one: 1 or 2 . Criterion: greater recorded IC50. Record your answer as the label of the chosen record.
**A:** 1

1 = CC(C)[C@@H](C)Nc1cc(-c2[nH]c([S+](C)[O-])nc2-c2ccc(F)cc2)ccn1 (mixture of isomers)
2 = CC(C)Nc1cc(-c2[nH]c(SC(C)C)nc2-c2ccc(F)cc2)ccn1
3 = C[S@+]([O-])c1nc(-c2ccnc(NC3CCCCC3)c2)c(-c2ccc(F)cc2)[nH]1
4 = CSc1nc(-c2ccnc(NC(=O)Cc3ccc(F)cc3)c2)c(-c2ccc(F)cc2)[nH]1
5 = C[S@@+]([O-])c1nc(-c2ccc(F)cc2)c(-c2ccnc(NC(=O)Cc3ccc(F)cc3)c2)[nH]1
**Q:** Place the items in sequence of falling IC50. Form field (ranking): labels in requested order.
**A:** 5, 4, 1, 3, 2
(5: 6410 nM, 4: 2980 nM, 1: 1340 nM, 3: 590 nM, 2: 120 nM)

P = CSc1nc(-c2ccnc(NC3CCCCC3)c2)c(-c2ccc(F)cc2)[nH]1
Q = CSc1nc(-c2ccc(F)cc2)c(-c2ccnc(N[C@@H](C)C(C)C)c2)[nH]1
R = CC(C)[S+]([O-])c1nc(-c2ccc(F)cc2)c(-c2ccnc(NC3CCCCC3)c2)[nH]1 (racemic)
S = C[S+]([O-])c1nc(-c2ccc(F)cc2)c(-c2ccnc(NC3CCCCC3)c2)[nH]1 (racemic)
**Q:** Sort low-to-high on IC50, please. Form field (ranking): labels in requested order.
**A:** Q, P, S, R

1 = CC(C)[C@H](C)Nc1cc(-c2[nH]c([S+](C)[O-])nc2-c2ccc(F)cc2)ccn1 (mixture of isomers)
2 = C[S@@+]([O-])c1nc(-c2ccnc(NC3CCOCC3)c2)c(-c2ccc(F)cc2)[nH]1
3 = CC(C)Nc1cc(-c2nc([S@+]([O-])C(C)C)[nH]c2-c2ccc(F)cc2)ccn1
4 = C[C@H](Nc1cc(-c2nc([S@+](C)[O-])[nH]c2-c2ccc(F)cc2)ccn1)c1ccccc1
**Q:** Sort low-to-high on IC50, please. Form field (ranking): labels in requested order.
**A:** 1, 3, 2, 4

====

assayed-target: Mitogen-activated protein kinase 14 (Homo sapiens)
measurement-description: Inhibition of p38 alpha MAPK in human whole blood assessed as suppression of LPS-induced TNF-alpha release by immunosorbent non-radioactive enzyme assay relative to SB203580
Type: tissue-based
value-type: Ratio IC50

// worked examples, Ratio IC50 included
CC(C)Nc1cc(-c2[nH]c([S@+](C)[O-])nc2-c2ccc(F)cc2)ccn1 : 2.29
C[S@@+]([O-])c1nc(-c2ccc(F)cc2)c(-c2ccnc(NC3CCOCC3)c2)[nH]1 : 2.15
C[S@+]([O-])c1nc(-c2ccc(F)cc2)c(-c2ccnc(NC3CCOCC3)c2)[nH]1 : 2.05
CC(C)Sc1nc(-c2ccc(F)cc2)c(-c2ccnc(NC3CCCCC3)c2)[nH]1 : 2.86
CC(C)[C@H](C)Nc1cc(-c2[nH]c([S+](C)[O-])nc2-c2ccc(F)cc2)ccn1 (mixture of isomers) : 10.4
C[S+]([O-])c1nc(-c2ccc(F)cc2)c(-c2ccnc(NC3CCCCC3)c2)[nH]1 (racemic) : 1.98
C[C@H](Nc1cc(-c2[nH]c([S@+](C)[O-])nc2-c2ccc(F)cc2)ccn1)c1ccccc1 : 0.28
CC(C)Nc1cc(-c2[nH]c([S@@+]([O-])C(C)C)nc2-c2ccc(F)cc2)ccn1 : 3.13
CSc1nc(-c2ccc(F)cc2)c(-c2ccnc(N[C@@H](C)C(C)C)c2)[nH]1 : 31.2
CC(C)[C@H](C)Nc1cc(-c2[nH]c([S@@+](C)[O-])nc2-c2ccc(F)cc2)ccn1 : 8.5

a = CSc1nc(-c2ccc(F)cc2)c(-c2ccnc(NC(C)C)c2)[nH]1
b = C[S@+]([O-])c1nc(-c2ccc(F)cc2)c(-c2ccnc(NC(=O)Cc3ccc(F)cc3)c2)[nH]1
**Q:** Select one: a or b . Criterion: greater recorded Ratio IC50. Record your answer as the label of the chosen record.
**A:** a

1 = C[C@H](Nc1cc(-c2[nH]c([S+](C)[O-])nc2-c2ccc(F)cc2)ccn1)c1ccccc1 (mixture of isomers)
2 = C[S@+]([O-])c1nc(-c2ccc(F)cc2)c(-c2ccnc(NC3CCCCC3)c2)[nH]1
**Q:** // pick min by Ratio IC50: 1 , 2 Record your answer as the label of the chosen record.
**A:** 1

====

assayed-target: Mitogen-activated protein kinase 14 (Homo sapiens, UniProt Q16539)
Sequence (Q16539 whole entry): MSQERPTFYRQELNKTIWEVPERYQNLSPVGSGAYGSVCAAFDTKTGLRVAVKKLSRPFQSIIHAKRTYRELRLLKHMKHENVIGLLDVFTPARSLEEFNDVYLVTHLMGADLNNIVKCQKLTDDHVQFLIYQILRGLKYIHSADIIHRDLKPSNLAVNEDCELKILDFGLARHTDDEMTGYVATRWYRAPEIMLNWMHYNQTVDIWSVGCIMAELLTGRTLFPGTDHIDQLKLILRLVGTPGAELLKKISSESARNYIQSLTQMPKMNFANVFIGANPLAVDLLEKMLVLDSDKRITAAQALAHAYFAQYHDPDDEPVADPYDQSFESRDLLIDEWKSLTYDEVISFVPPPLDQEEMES
measurement-description: Inhibition of p38 alpha MAPK in human whole blood assessed as suppression of LPS-induced TNF-alpha release by immunosorbent non-radioactive enzyme assay relative to SB203580
Format: tissue-based
value-type: Ratio IC50

// worked examples, Ratio IC50 included
CC(C)[S@@+]([O-])c1nc(-c2ccc(F)cc2)c(-c2ccnc(NC3CCCCC3)c2)[nH]1 : 7.64
C[S+]([O-])c1nc(-c2ccc(F)cc2)c(-c2ccnc(NC3CCOCC3)c2)[nH]1 (racemic) : 3.62
CC(C)[S+]([O-])c1nc(-c2ccc(F)cc2)c(-c2ccnc(NC3CCCCC3)c2)[nH]1 (racemic) : 1.72
CSc1nc(-c2ccc(F)cc2)c(-c2ccnc(N[C@H](C)C(C)C)c2)[nH]1 : 8.67
CC(C)[C@@H](C)Nc1cc(-c2[nH]c([S@@+](C)[O-])nc2-c2ccc(F)cc2)ccn1 : 1.72
CSc1nc(-c2ccc(F)cc2)c(-c2ccnc(NC3CCOCC3)c2)[nH]1 : 10.7
CC(C)Nc1cc(-c2[nH]c([S+]([O-])C(C)C)nc2-c2ccc(F)cc2)ccn1 (racemic) : 4.92

a = CSc1nc(-c2ccc(F)cc2)c(-c2ccnc(NC3CCCCC3)c2)[nH]1
b = CC(C)Nc1cc(-c2[nH]c([S@@+](C)[O-])nc2-c2ccc(F)cc2)ccn1
**Q:** Select one: a or b . Criterion: greater recorded Ratio IC50. Record your answer as the label of the chosen record.
**A:** a

====

assayed-target: Mitogen-activated protein kinase 14 (Homo sapiens)
measurement-description: Inhibition of p38 alpha MAPK in human whole blood assessed as phosphorylation of ATF-2 by immunosorbent non-radioactive enzyme assay
Type: tissue-based
value-type: IC50 (nM)

// worked examples, IC50 included
CSc1nc(-c2ccc(F)cc2)c(-c2ccnc(NC(C)=O)c2)n1C : 188
CSc1nc(-c2ccc(F)cc2)c(-c2ccnc(N[C@@H](C)C(C)C)c2)[nH]1 : 26
C[S@@+]([O-])c1nc(-c2ccc(F)cc2)c(-c2ccnc(NC(=O)Cc3ccc(F)cc3)c2)[nH]1 : 77
C[S@+]([O-])c1nc(-c2ccnc(NC3CCOCC3)c2)c(-c2ccc(F)cc2)[nH]1 : 34
CC(=O)Nc1cc(-c2nc([S@@+](C)[O-])[nH]c2-c2ccc(F)cc2)ccn1 : 161

1 = CC(C)Nc1cc(-c2[nH]c([S+]([O-])C(C)C)nc2-c2ccc(F)cc2)ccn1 (racemic)
2 = C[S+]([O-])c1nc(-c2ccc(F)cc2)c(-c2ccnc(NC(=O)Cc3ccc(F)cc3)c2)[nH]1 (racemic)
3 = CSc1nc(-c2ccc(F)cc2)c(-c2ccnc(NC(C)=O)c2)[nH]1
4 = C[S@@+]([O-])c1nc(-c2ccnc(NC3CCOCC3)c2)c(-c2ccc(F)cc2)[nH]1
**Q:** Place the items in sequence of falling IC50. Form field (ranking): labels in requested order.
**A:** 2, 3, 4, 1
(2: 69 nM, 3: 37 nM, 4: 11 nM, 1: 3 nM)

====

assayed-target: Mitogen-activated protein kinase 14 (Homo sapiens)
measurement-description: Inhibition of p38 alpha MAPK in human whole blood assessed as phosphorylation of ATF-2 by immunosorbent non-radioactive enzyme assay relative to SB203580
Type: tissue-based
value-type: Ratio IC50

// worked examples, Ratio IC50 included
CC(C)Sc1nc(-c2ccc(F)cc2)c(-c2ccnc(NC3CCCCC3)c2)[nH]1 : 4.17
CC(C)Nc1cc(-c2[nH]c([S@+](C)[O-])nc2-c2ccc(F)cc2)ccn1 : 2.54

a = CSc1nc(-c2ccc(F)cc2)c(-c2ccnc(N[C@@H](C)C(C)C)c2)[nH]1
b = C[C@H](Nc1cc(-c2[nH]c([S@@+](C)[O-])nc2-c2ccc(F)cc2)ccn1)c1ccccc1
**Q:** // pick min by Ratio IC50: a , b Record your answer as the label of the chosen record.
**A:** b

1 = CSc1nc(-c2ccc(F)cc2)c(-c2ccnc(N[C@H](C)C(C)C)c2)[nH]1
2 = CC(C)[C@@H](C)Nc1cc(-c2[nH]c([S+](C)[O-])nc2-c2ccc(F)cc2)ccn1 (mixture of isomers)
**Q:** Select one: 1 or 2 . Criterion: greater recorded Ratio IC50. Record your answer as the label of the chosen record.
**A:** 1
(1: 1.8, 2: 1.18)
